// values below are reported pKd
# System: T1, human CD8αα homodimer, recombinant protein (Acro Biosystems) (human, UniProt P01732 22-182)
# T1 construct: also called CD8αα antigen; biotinylated CD8α recombinant protein (CDA-H82E3)
# T1 sequence (P01732 22-182 limits assumed): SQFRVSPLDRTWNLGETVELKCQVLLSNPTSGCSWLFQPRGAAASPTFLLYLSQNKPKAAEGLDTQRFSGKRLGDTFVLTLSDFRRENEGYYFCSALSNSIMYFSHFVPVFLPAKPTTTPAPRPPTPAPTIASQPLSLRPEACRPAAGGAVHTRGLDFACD
# Procedure Details: BLI steady state, whole hIgG1-LALAPA antibody on CD8α-His (Ni-NTA sensor), 30 °C
Quick note: pKd values are minus log10 of concentrations in mol/L.

stdin: State the recorded pKd for this entry: CBD1045 (antibody, human IgG1, kappa, L234A L235A, V domains shown, also called h1017-H8/L5 whole antibody hIgG1-LALAPA) VH: QVQLVQSGAEVKKPGASVKVSCKASRYTFTDYNLHWVRQAPGQGLEWIGFIYPYNGGTGYAQKFKGRVTITADTSTSTAYMELSSLRSEDTAVYYCARDHRYNEGVSFDYWGQGTLVTVSS VL: EIVLTQSPGTLSLSPGERATLSCRASESVDGFGNSFMNWYQQKPGQAPRLLIYLASNLESGVPARFSGSGSGTDFTLTISRLEPEDFAVYYCQQNNEDPYTFGQGTKVEIKR
stdout: 8.38

stdin: State the recorded pKd for this entry: CBD1042 (antibody, human IgG1, kappa, L234A L235A, V domains shown, also called h1017-H7/L4 whole antibody hIgG1-LALAPA) VH: QVQLVQSGAEVKKPGASVKVSCKASRYTFTDYNLHWVRQAPGQGLEWIGFIYPYNGGTGYAQKFQGRVTITADTSTSTAYMELSSLRSEDTAVYYCARDHRYNEGVSFDYWGQGTLVTVSS VL: EIVLTQSPGTLSLSPGERATLSCRASESVDGFGNSFMNWYQQKPGQAPRLLIYLASNLESGIPARFSGSGSGTDFTLTISRLEPEDFAVYYCQQNNEDPYTFGQGTKVEIKR
stdout: 8.44
